Items are presented alongside their recorded responders at 50 mg/kg.
# Test system: maximum electroshock seizure (MES) model
# protocol_description: Maximum electroshock seizure (MES) model test
# Assay type: in vivo, mice
# test_parameters: Mus musculus, po, 1 h, 50 mg/kg oral, Slc: ddY male mice, 3 per group, electrical stimulation 1 hour after administration; inhibition of hind limb extension; read-out: MES (positive number/tested number) (converted)
experimental_readout: responders at 50 mg/kg

compound	reported
NC(=O)Cc1ccccc1-c1ccc(OC(F)(F)F)c(F)c1 [Example 70]	33.3%
NC(=O)Cc1ccc(C(F)(F)F)cc1-c1cccc(F)c1 [Example 149]	33.3%
CNC(=O)Cc1ccccc1-c1cccc(C(F)(F)F)c1 [Example 5]	0%
NC(=O)Cc1ccccc1-c1cccc(C(F)(F)F)c1 [Example 4]	0%
COC(C(=O)N(C)C)c1ccccc1-c1ccccc1F (stereo not drawn) [Example 202]	33.3%
NC(=O)Cc1ccccc1-c1ccccc1C(F)(F)F [Example 6]	0%
CNC(=O)C(F)c1ccccc1-c1ccccc1F (stereo not drawn) [Example 165]	66.7%
CNC(=O)Cc1cc(Cl)ccc1-c1ccccc1 [Example 36]	0%
CNC(=O)Cc1ccc(C(F)(F)F)cc1-c1ccccc1 [Example 33]	33.3%
NC(=O)Cc1ccccc1-c1cccc(F)c1 [Example 25, 2-(3′-fluorobiphenyl-2-yl)acetamide]	100%
NC(=O)Cc1ccccc1-c1cccc(OC(F)(F)F)c1 [Example 79]	33.3%
NC(=O)Cc1ccccc1-c1ccc(OC(F)(F)F)cc1 [Example 76]	0%
CNC(=O)Cc1ccccc1-c1cccc(Br)c1 [Example 55]	0%
NC(=O)C(F)c1ccccc1-c1cccc(F)c1 (stereo not drawn) [Example 160]	33.3%
CCNC(=O)Cc1ccccc1-c1ccccc1C(F)(F)F [Example 8]	0%
NC(=O)C(O)c1cc(F)ccc1-c1cccc(F)c1 (stereo not drawn) [Example 188]	33.3%
CN(C)C(=O)Cc1ccccc1-c1ccc(Cl)cc1 [Example 12]	0%
CNC(=O)Cc1ccc(Cl)cc1-c1ccccc1F [Example 126]	0%
NC(=O)Cc1ccccc1-c1ccccc1F [Example 1, 2-(2′-Fluorobiphenyl-2-yl)acetamide]	100%
CNC(=O)C(OC)c1ccccc1-c1ccccc1 (stereo not drawn) [Example 62]	66.7%
CNC(=O)Cc1ccccc1-c1cccc(OC(F)(F)F)c1 [Example 99]	66.7%
